assay: RP, Phenomenex Synergi Hydro-RP, 250 × 2 mm, 4 µm, 25 °C, 0.2 mL/min, estimated dead time 2.5 min; A: water + 0.1% formic acid, pH 3; B: acetonitrile + 0.1% formic acid, pH 3; gradient (min/%B) 0/0.5 7/0.5 12/12.5 25/16.3 47/35 48/65 50/65 50.1/0.5; conditions: stereoisomer not certain
Each item that follows carries a reported LC retention time.
Give the quantity in min, number only.

| molecule | value.reported |
| --- | --- |
| CS(=O)CCCC(=NOS(=O)(=O)O)SC1OC(CO)C(O)C(O)C1O (centres undefined) [Glucoiberin] | 4.44 |
| CC1OC(Oc2c(-c3ccc(O)c(O)c3)oc3cc(O)cc(O)c3c2=O)C(O)C(O)C1O (centres undefined) [Quercitrin] | 38.3 |
| Nc1nc2ncc(CNc3ccc(C(=O)NC(CCC(=O)O)C(=O)O)cc3)nc2c(=O)[nH]1 (centres undefined) [Folic acid] | 19 |

QUERY: I would be grateful if you could share the reported LC retention time for O=Cc1c(O)cc(O)cc1O [Phloroglucinol aldehyde] .
RESULT: 27.6

###

assay: RP, Agilent ZORBAX RRHD Eclipse Plus C18, 50 × 2.1 mm, 1.8 µm, 30 °C, 0.4 mL/min, estimated dead time 0.28 min; A: water + 0.1% formic acid, pH 3; B: acetonitrile + 0.1% formic acid, pH 3; gradient (min/%B) 0/1 5/10 8/25 9.1/99 10/99 12/1; settings: stereoisomer not certain
assay.readout: LC retention time (min)
Give the quantity in min, number only.

| molecule | LC retention time / min |
| --- | --- |
| Oc1cccc(O)c1 [Resorcinol] | 2.66 |

QUERY: I would be grateful if you could share the reported LC retention time for COc1c(O)cccc1OS(=O)(=O)O [2-Methyl-pyrogallol-O-sulfate] .
RESULT: 2.89

QUERY: I would be grateful if you could share the reported LC retention time for O=C(O)c1ccccc1O [Salicylic acid] .
RESULT: 8.13

QUERY: I would be grateful if you could share the reported LC retention time for O=C(O)C=Cc1ccc(O)c(OS(=O)(=O)O)c1 [Caffeic acid-3-O-sulfate] .
RESULT: 4.86

QUERY: I would be grateful if you could share the reported LC retention time for COc1cc(CCC(=O)O)ccc1OS(=O)(=O)O [Dihydroferulic acid-4-O-Sulfate] .
RESULT: 5.86

QUERY: I would be grateful if you could share the reported LC retention time for Oc1ccccc1O [Catechol] .
RESULT: 3.15

QUERY: I would be grateful if you could share the reported LC retention time for COc1ccc(C(=O)O)cc1O [Isovanillic acid] .
RESULT: 5.2

QUERY: I would be grateful if you could share the reported LC retention time for O=C(C=Cc1ccc(O)c(O)c1)OC1CC(O)(C(=O)O)CC(O)C1O (centres undefined) [Chlorogenic acid] .
RESULT: 5.31

QUERY: I would be grateful if you could share the reported LC retention time for O=c1c(OS(=O)(=O)O)c(-c2ccc(O)c(O)c2)oc2cc(O)cc(O)c12 [Quercetin 3-O-sulfate] .
RESULT: 7.73

QUERY: I would be grateful if you could share the reported LC retention time for COc1ccc(C=CC(=O)O)cc1OS(=O)(=O)O [Isoferulic acid 3-O-sulfate] .
RESULT: 6.76

QUERY: I would be grateful if you could share the reported LC retention time for COc1cc(C(=O)O)ccc1OS(=O)(=O)O [Vanillic acid-4-O-sulfate] .
RESULT: 3.82

QUERY: I would be grateful if you could share the reported LC retention time for O=C(O)CCc1ccc(O)c(OS(=O)(=O)O)c1 [Dihydrocaffeic acid-3-O-sulfate] .
RESULT: 5.08

QUERY: I would be grateful if you could share the reported LC retention time for O=Cc1cccc(O)c1 [3-Hydroxybenzaldehyde] .
RESULT: 5.91

QUERY: I would be grateful if you could share the reported LC retention time for COc1ccc(CCC(=O)O)cc1O [Dihydroisoferulic acid] .
RESULT: 7.68

QUERY: I would be grateful if you could share the reported LC retention time for O=C(O)CCc1cccc(O)c1 [3-(3-hydroxyphenyl)propanoic acid] .
RESULT: 7.32

QUERY: I would be grateful if you could share the reported LC retention time for O=c1ccc2ccc(O)c(O)c2o1 [7,8-Dihydroxycoumarin] .
RESULT: 6.14

QUERY: I would be grateful if you could share the reported LC retention time for O=C1CCC(Cc2ccc(OS(=O)(=O)O)c(O)c2)O1 (centres undefined) .
RESULT: 6.09

QUERY: I would be grateful if you could share the reported LC retention time for COc1ccc(CCC(=O)O)cc1OS(=O)(=O)O [Dihydro isoferulic acid-3-O-sulfate] .
RESULT: 6.39

QUERY: I would be grateful if you could share the reported LC retention time for COc1cccc(OS(=O)(=O)O)c1O [1-Methyl-pyrogallol-O-sulfate] .
RESULT: 4

###

test: RP, Agilent ZORBAX RRHD Eclipse Plus C18, 50 × 2.1 mm, 1.8 µm, 30 °C, 0.4 mL/min, estimated dead time 0.28 min; A: water + 0.1% formic acid, pH 3; B: acetonitrile + 0.1% formic acid, pH 3; gradient (min/%B) 0/1 5/10 8/25 9.1/99 10/99 12/1; conditions: stereoisomer not certain
assay.readout: LC retention time (min)
Give the quantity in min, number only.

Below, each entry is followed by its recorded LC retention time result.
| compound | LC retention time (min) |
| --- | --- |
| O=C1c2c(O)cc(O)cc2OC(c2ccc(O)c(O)c2)C1O (stereo not drawn) | 7.85 |
| O=C(O)CCc1ccc(O)c(OC2OC(C(=O)O)C(O)C(O)C2O)c1 (stereo not drawn) [Dihydrocaffeic acid-3-O-glucuronide] | 5.11 |
| O=Cc1ccc(O)c(O)c1 [3,4-Dihydroxybenzaldehyde] | 4.12 |
| COc1cc(C=CC(=O)O)ccc1OC1OC(C(=O)O)C(O)C(O)C1O (stereo not drawn) [Ferulic acid-4-O-glucuronide] | 4.81 |
| O=C(O)C=Cc1ccc(OS(=O)(=O)O)c(O)c1 [caffeic acid-4-O-sulfate] | 5.28 |
| O=C(O)C=Cc1ccc(O)cc1 | 6.97 |

QUERY: I would be grateful if you could share the reported LC retention time for Cc1ccc(OS(=O)(=O)O)c(O)c1 [4-Methylcatechol-1-O-sulfate] .
RESULT: 5.96

QUERY: I would be grateful if you could share the reported LC retention time for O=C(O)C1OC(Oc2ccccc2O)C(O)C(O)C1O (stereo not drawn) [Catechol-O-1-glucuronide] .
RESULT: 4.38

###

experiment: RP, Waters Atlantis T3, 100 × 2.1 mm, 3 µm, 40 °C, 0.3 mL/min, estimated dead time 0.73 min; A: water + 0.1% trifluoroacetic acid, pH 2; B: acetonitrile + 0.1% trifluoroacetic acid, pH 2; gradient (min/%B) 0/10 1/10 6/40 7/50 8/50 14/70 16/80 20/10 25/10; conditions: stereoisomer not certain
assay.readout: LC retention time (min)
Give the quantity in min, number only.

Below, each entry is followed by its recorded LC retention time result.
| compound | value.units | LC retention time |
| --- | --- | --- |
| O=C(C=Cc1ccc(O)c(O)c1)OC1CC(O)(C(=O)O)CC(O)C1O (stereo not drawn) | min | 3.17 |
| O=c1cc(-c2ccc(O)cc2)oc2cc(OC3OC(CO)C(O)C(O)C3O)cc(O)c12 (stereo not drawn) [Apigenin 7-O-glucoside] | min | 7.96 |
| O=c1c(O)c(-c2ccc(O)cc2)oc2cc(OC3OC(CO)C(O)C(O)C3O)cc(O)c12 (stereo not drawn) [kaempferol-7-O-glucoside] | min | 7.37 |
| O=c1c(O)c(-c2ccc(O)c(O)c2)oc2cc(O)cc(O)c12 | min | 9.34 |

Turning now to a further record.
QUERY: I would be grateful if you could share the reported LC retention time for `COc1cc(O)c(CC=C(C)C)c(O)c1C(=O)C=Cc1ccc(O)cc1` .
RESULT: 15.4

###

test: RP, Phenomenex Luna C18, 150 × 4.6 mm, 3 µm, 25 °C, 0.5 mL/min, estimated dead time 3.2 min; A: water + 0.1% formic acid, pH 3; B: acetonitrile + 0.1% formic acid, pH 3; gradient (min/%B) 0/0 30/30 35/40 50/80 52/80 60/0 65/0; conditions: stereoisomer not certain
# binarize LC retention time: threshold 30 min inclusive, high side true, low side false

QUERY: Can OCCc1ccc(O)c(O)c1 [Hydroxytyrosol] be said to have LC retention time at or above 30 min?
RESULT: false

###

experiment: RP, 150 × 2.1 mm, 2.6 µm, 40 °C, 0.35 mL/min, estimated dead time 0.94 min; A: water + 0.1% formic acid, pH 3; B: acetonitrile + 0.1% formic acid, pH 3; gradient (min/%B) 0/0 1/5 7/45 8.5/80 10.5/80 11/5 12/5; conditions: stereoisomer not certain
assay.readout: LC retention time
Write the figure, then the unit, nothing else.

Below, each entry is followed by its recorded LC retention time result.
| compound | LC retention time |
| --- | --- |
| O=c1c(OC2OC(CO)C(O)C(O)C2O)c(-c2ccc(O)c(O)c2)oc2cc(O)cc(O)c12 (stereo unspecified) [Quercetin-3-O-galactoside] | 5.74 min |
| COc1ccc(C2CC(=O)c3c(O)cc(OC4OC(COC5OC(C)C(O)C(O)C5O)C(O)C(O)C4O)cc3O2)cc1O (stereo unspecified) | 6.18 min |
| O=C(O)CNC(=O)c1ccco1 | 2.35 min |
| CC(C=CC1(O)C(C)=CC(=O)CC1(C)C)=CC(=O)O (stereo unspecified) [Abscisic acid] | 7.12 min |

QUERY: I would be grateful if you could share the reported LC retention time for O=C(O)CNC(=O)c1ccccc1O [2-Hydroxyhippuric acid] .
RESULT: 5.38 min

QUERY: I would be grateful if you could share the reported LC retention time for CC1OC(Oc2c(-c3ccc(O)c(O)c3)oc3cc(O)cc(O)c3c2=O)C(O)C(O)C1O (stereo unspecified) .
RESULT: 6.17 min

QUERY: I would be grateful if you could share the reported LC retention time for COc1cc(-c2oc3cc(O)cc(O)c3c(=O)c2OC2OC(COC3OC(C)C(O)C(O)C3O)C(O)C(O)C2O)ccc1O (stereo unspecified) [Isorhamnetin-3-O-rutinoside] .
RESULT: 5.95 min

QUERY: I would be grateful if you could share the reported LC retention time for `O=C(O)CCc1c[nH]c2ccccc12` .
RESULT: 7.34 min

QUERY: I would be grateful if you could share the reported LC retention time for `O=C(CCc1ccc(O)cc1)c1c(O)cc(O)cc1O` .
RESULT: 7.9 min
